- Tested on: ME-180 (Cervical Carcinoma);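 also: after 72 h of two-drug dosing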
- Assay Name: Bliss excess, mean over the matrix (fraction); higher = more synergy
The compounds listed here are annotated with their Bliss excess.

Compound	Bliss excess
CC(=O)c1c(C)c2cnc(Nc3ccc(N4CCNCC4)cn3)nc2n(C2CCCC2)c1=O [Palbociclib] + CC1(C)CCC(CN2CCN(c3ccc(C(=O)NS(=O)(=O)c4ccc(NCC5CCOCC5)c([N+](=O)[O-])c4)c(Oc4cnc5[nH]ccc5c4)c3)CC2)=C(c2ccc(Cl)cc2)C1 [Venetoclax] (first compound max 10 µM, 7x7, partner max 1 µM)	-0.0622
O=C(c1cc(Cc2n[nH]c(=O)c3ccccc23)ccc1F)N1CCN(C(=O)C2CC2)CC1 [Olaparib] + CN(CC[C@H](CSC1=CC=CC=C1)NC2=C(C=C(C=C2)S(=O)(=O)NC(=O)C3=CC=C(C=C3)N4CCC(CC4)[C@H](C5=CC=CC=C5C6=CC=C(C=C6)Cl)O)S(=O)(=O)C(F)(F)F)CCO [AZD4320] (first compound max 10 µM, 7x7, partner max 1 µM)	-0.021
CC(=O)Nc1cccc(-n2c(=O)n(C3CC3)c(=O)c3c(Nc4ccc(I)cc4F)n(C)c(=O)c(C)c32)c1 [Trametinib] + Cc1nc(-c2cn3c(n2)-c2ccc(-c4cnn(C(C)(C)C(N)=O)c4)cc2OCC3)n(C(C)C)n1 [Taselisib] (first compound max 1 µM, 7x7, partner max 10 µM)	0.0713
CN(CCO)CC[C@H](CSc1ccccc1)Nc1ccc(S(=O)(=O)NC(=O)c2ccc(N3CCC([C@@H](O)c4ccccc4-c4ccc(Cl)cc4)CC3)cc2)cc1S(=O)(=O)C(F)(F)F [AZD4320] + Cn1cnc2c(F)c(Nc3ccc(Br)cc3Cl)c(C(=O)NOCCO)cc21 [Selumetinib] (first compound max 1 µM, 7x7, partner max 3 µM)	0.0771
C[C@@H](Oc1cc(-c2cnn(C3CCNCC3)c2)cnc1N)c1c(Cl)ccc(F)c1Cl [Crizotinib] + Cn1cnc2c(F)c(Nc3ccc(Br)cc3Cl)c(C(=O)NOCCO)cc21 [Selumetinib] (first compound max 10 µM, 7x7, partner max 10 µM)	0.0308
COc1nnc2ccc(N3CCC(c4ccc(OCCN5CCN(C)C(=O)[C@H]5C)cc4)CC3)nn12 [AZD5153] + Cn1cnc2c(F)c(Nc3ccc(Br)cc3Cl)c(C(=O)NOCCO)cc21 [Selumetinib] (first compound max 1 µM, 7x7, partner max 10 µM)	-0.019
